Origin of measurements: patent US7169786B2

Target: hα2C receptor (Homo sapiens)
Construct: expressed in transfected cells
Sequence (P18825 1-462): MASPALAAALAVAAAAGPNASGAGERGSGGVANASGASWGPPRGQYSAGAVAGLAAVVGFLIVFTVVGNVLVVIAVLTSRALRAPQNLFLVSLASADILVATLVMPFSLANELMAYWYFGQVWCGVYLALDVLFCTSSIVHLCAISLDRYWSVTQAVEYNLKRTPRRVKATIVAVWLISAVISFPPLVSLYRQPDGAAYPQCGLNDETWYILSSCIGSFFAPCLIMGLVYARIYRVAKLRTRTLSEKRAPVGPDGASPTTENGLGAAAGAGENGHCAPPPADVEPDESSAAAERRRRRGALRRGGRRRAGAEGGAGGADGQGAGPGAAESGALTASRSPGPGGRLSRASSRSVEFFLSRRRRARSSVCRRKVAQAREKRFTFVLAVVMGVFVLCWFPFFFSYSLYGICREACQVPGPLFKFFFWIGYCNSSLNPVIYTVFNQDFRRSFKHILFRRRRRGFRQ
Test: Radioligand binding experiment for hα2C receptor ([3H]-raulwolscine)
Settings: membranes of CHO cells expressing human α2C receptor; [3H]raulwolscine 1 nM
Record 1 whenever hα2C pIC50 is at 8 or higher; record 0 when lower.

For this compound, is measured hα2C pIC50 8 or higher? CC(=Cc1ccccc1)CN1CCN(CC2ON=C3c4ccc(OC5CCCC5)cc4OCC32)CC1 (stereo not shown)
1

Determine whether this compound has hα2C pIC50 no lower than 8: COc1cc2c(cc1OC)C1=NOC(CN(C=O)C3CCN(Cc4ccc5ccccc5c4)CC3)C1CO2 (racemic)
0

Is it the case that CN1CC2C(=NOC2CN2CCN(Cc3ccc4ccccc4c3)CC2)c2ccccc21 (stereo not shown) has hα2C pIC50 reaching or exceeding 8?
0

Entry COc1cc2c(cc1OS(C)(=O)=O)OCC1C2=NOC1CN1CCN(CC(C)=Cc2ccccc2)CC1 (single isomer, unassigned) : is its hα2C pIC50 no less than 8?
1

hα2C pIC50 >= 8 for COc1cc2c(cc1OC)C1=NOC(CN(C)C3CCN(Cc4ccc5ccccc5c4)CC3)C1CO2 (racemic) ?
0

---

Molecular target: hα2C receptor (Homo sapiens)
Construct: expressed in transfected cells
Sequence (P18825 1-462): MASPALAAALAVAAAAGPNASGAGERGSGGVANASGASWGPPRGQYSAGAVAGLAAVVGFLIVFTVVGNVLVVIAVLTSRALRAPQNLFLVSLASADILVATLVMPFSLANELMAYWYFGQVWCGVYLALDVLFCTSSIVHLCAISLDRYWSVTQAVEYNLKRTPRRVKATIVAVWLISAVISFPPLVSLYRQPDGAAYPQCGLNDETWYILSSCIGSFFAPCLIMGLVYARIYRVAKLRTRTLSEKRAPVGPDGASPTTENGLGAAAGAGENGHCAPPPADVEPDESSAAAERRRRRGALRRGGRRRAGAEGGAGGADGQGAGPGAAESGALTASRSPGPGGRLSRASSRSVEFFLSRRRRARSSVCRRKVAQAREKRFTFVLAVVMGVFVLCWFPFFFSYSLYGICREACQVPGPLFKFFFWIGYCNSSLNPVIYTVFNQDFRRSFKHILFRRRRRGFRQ
Experiment: Radioligand binding experiment for hα2C receptor ([3H]-raulwolscine)
Conditions: membranes of CHO cells expressing human α2C receptor; [3H]raulwolscine 1 nM; read-out: hα2C pIC50 (converted)
Measurement Kind: IC50 (nM)
Your answer is read as nM, so omit the unit and give the number.

Fill in IC50 for COc1cc2c(cc1OC)C1=NOC(CN3CCN(CCc4ccc5c(c4)OCO5)CC3)C1CO2 (stereo not shown) [Compound 47] tested with hα2C receptor (Homo sapiens).
851

# assay system hα2C receptor (Homo sapiens): give IC50 of COC(=O)Oc1cc2c(cc1OC)C1=NOC(CN3CCN(C/C(C)=C/c4ccccc4)CC3)C1CO2 (single isomer, unassigned) [Compound 343]
1.23

Report value: IC50, system: hα2C receptor (Homo sapiens), compound: CCC(=Cc1ccccc1)CN1CCN(CC2ON=C3c4cc(OC)c(OC)cc4OCC32)CC1 (stereo not shown) [Compound 154]
87.1

Give measured IC50 for COc1cc2c(cc1F)C1=NOC(CN3CCN(CC(C)=Cc4ccccc4)CC3)C1CO2 (stereo not shown) [Compound 241] (hα2C receptor (Homo sapiens)).
6.31

---

Target: hα2C receptor (Homo sapiens)
Construct: expressed in transfected cells
Experiment: Radioligand binding experiment for hα2C receptor ([3H]-raulwolscine)
Conditions: membranes of CHO cells expressing human α2C receptor; [3H]raulwolscine 1 nM
# label = MET if hα2C pIC50 < 8 else NOT MET

Does the reported hα2C pIC50 of the following compound sit strictly below 8? COc1cc2c(cc1OC(C)=O)C1=NOC(CN3CCN(CC(C)=Cc4ccccc4)CC3)C1CO2 (stereo not shown)
NOT MET

Confirm or reject: hα2C pIC50 of COc1cc2c(cc1SC)OCC1C2=NOC1CN1CCN(CC(C)=Cc2ccccc2)CC1.O=C(O)C(F)(F)F (racemic) lies strictly below 8
NOT MET

Take the compound CC(=Cc1ccccc1)CN1CCN(CC2ON=C3c4ccccc4NCC32)CC1 (stereo not shown) and say whether its hα2C pIC50 is less than 8.
NOT MET

Strictly below 8: is that where hα2C pIC50 of C=CCOc1cc2c(cc1OC)C1=NOC(CN3CCN(CC(C)=Cc4ccccc4)CC3)C1CO2 (single isomer, unassigned) sits?
NOT MET

For CCOC(=O)N1CC2C(=NOC2CN2CCN(CC=Cc3ccccc3)CC2)c2ccccc21 (stereo not shown) , is the recorded hα2C pIC50 below the cut-off of 8?
MET

---

Target: h5-HT transporter (Homo sapiens, UniProt P31645)
Construct: Human platelet membranes (Oceanix Biosciences Corporation, Hanover, Md., USA) were thawed; tissue Oceanix Biosciences Corporation, Hanover, Md., USA; host or cells: human platelet membranes
Sequence (P31645 whole entry): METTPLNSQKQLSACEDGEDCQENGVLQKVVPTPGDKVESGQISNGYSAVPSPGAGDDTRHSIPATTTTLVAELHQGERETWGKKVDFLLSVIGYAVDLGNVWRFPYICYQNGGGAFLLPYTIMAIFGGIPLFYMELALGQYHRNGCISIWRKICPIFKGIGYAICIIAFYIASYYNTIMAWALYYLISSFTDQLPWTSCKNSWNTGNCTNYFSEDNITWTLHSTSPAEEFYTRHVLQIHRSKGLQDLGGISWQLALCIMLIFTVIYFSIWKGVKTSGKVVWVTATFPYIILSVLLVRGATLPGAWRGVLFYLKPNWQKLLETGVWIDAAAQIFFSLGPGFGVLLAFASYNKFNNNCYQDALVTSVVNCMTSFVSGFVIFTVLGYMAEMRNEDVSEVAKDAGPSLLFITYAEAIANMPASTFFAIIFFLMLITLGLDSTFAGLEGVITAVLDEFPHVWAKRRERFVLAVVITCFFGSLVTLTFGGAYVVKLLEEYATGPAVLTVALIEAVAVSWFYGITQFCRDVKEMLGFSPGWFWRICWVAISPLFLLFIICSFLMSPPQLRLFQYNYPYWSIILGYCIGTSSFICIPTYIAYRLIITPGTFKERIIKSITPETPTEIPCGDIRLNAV
Assay: Radioligand binding experiment for 5-HT transporter ([3H]paroxetine, human platelet membranes)
Conditions: human platelet membranes; [3H]paroxetine 0.5 nM; read-out: 5HTT pIC50 (converted)
Measurement Kind: IC50
Express the reported value numerically, then name its unit.

Please look at this compound and report its IC50: Oc1ccc2c(c1)OCC1C2=NOC1CN1CCN(Cc2ccc3ccccc3c2)CC1 (stereo not shown)
5.75 nM

Specify reported IC50 for the compound shown: COc1cc2c(cc1OC)C1=NOC(CN3CCN(C/C=C(\C)c4cccc(Cl)c4)CC3)C1CO2 (single isomer, unassigned)
11.5 nM

Answer with the recorded IC50 for the compound listed here: COc1cc2c(cc1OC(C)=O)OCC1C2=NOC1CN1CCN(Cc2ccc3ccccc3c2)CC1 (stereo not shown)
13.5 nM

Supply recorded IC50 for COc1cc2c(cc1OC)C1=NOC(CN3CCN(CC4=Cc5ccccc5CC4)CC3)C1CO2 (stereo not shown) here.
1.2 nM

Quote IC50 reported for COc1cc2c(cc1OC)C1=NOC(CN3CCN(C/C=C(\C)c4ccc(F)cc4)CC3)C1CO2 (single isomer, unassigned) please.
4.17 nM

Report IC50 for COc1cc2c(cc1OC)C1=NOC(CN3CCN(Cc4cc5ccccc5o4)CC3)C1CO2 (stereo not shown)
41.7 nM

Give the measured IC50 for c1ccc2c(c1)NCC1C2=NOC1CN1CCN(Cc2ccc3ccccc3c2)CC1 (stereo not shown)
1.58 nM

---

Kindly supply the reported IC50 values for the records listed here.
Target: h5-HT transporter (Homo sapiens)
Construct: Human platelet membranes (Oceanix Biosciences Corporation, Hanover, Md., USA) were thawed; tissue Oceanix Biosciences Corporation, Hanover, Md., USA; host or cells: human platelet membranes
Assay: Radioligand binding experiment for 5-HT transporter ([3H]paroxetine, human platelet membranes)
Conditions: 5HTT pIC50
Return type: number; implicit unit nM.

Please give the documented IC50 of CCNC(=O)Oc1cc2c(cc1OC)C1=NOC(CN3CCN(C/C(C)=C/c4ccccc4)CC3)C1CO2 (single isomer, unassigned)
22.9

Provide only the value of recorded IC50 for CCNC(=O)Oc1ccc2c(c1)OCC1C2=NOC1CN1CCN(CC(C)=Cc2ccccc2)CC1 (centres unmarked)
8.51

---

Biological target: hα2A receptor (Homo sapiens)
Construct: expressed in transfected cells
Sequence (P08913 whole entry): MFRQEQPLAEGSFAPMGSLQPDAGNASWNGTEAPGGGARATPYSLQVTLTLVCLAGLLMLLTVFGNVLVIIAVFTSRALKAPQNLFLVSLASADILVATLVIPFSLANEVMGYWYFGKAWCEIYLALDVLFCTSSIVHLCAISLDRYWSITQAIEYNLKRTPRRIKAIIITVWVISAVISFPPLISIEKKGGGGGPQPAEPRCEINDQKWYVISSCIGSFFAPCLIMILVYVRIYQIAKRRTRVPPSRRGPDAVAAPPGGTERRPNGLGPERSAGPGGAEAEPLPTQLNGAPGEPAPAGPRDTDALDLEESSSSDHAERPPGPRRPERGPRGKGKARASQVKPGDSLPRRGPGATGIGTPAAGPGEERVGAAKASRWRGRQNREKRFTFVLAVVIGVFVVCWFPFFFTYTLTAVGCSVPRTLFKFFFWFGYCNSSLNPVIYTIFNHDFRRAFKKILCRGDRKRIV
Assay: Radioligand binding experiment for hα2A receptor ([3H]-raulwolscine)
Conditions: membranes of CHO cells expressing human α2A receptor; [3H]raulwolscine 1 nM; read-out: hα2A pIC50 (converted)
Measurement Kind: IC50 (nM)
# number only, unit nM dropped from output

Look up IC50 of COC(=O)Oc1cc2c(cc1OC)C1=NOC(CN3CCN(C/C(C)=C/c4ccccc4)CC3)C1CO2 (single isomer, unassigned) [Compound 343] and report it.
2.34

Assign IC50 to the following record: COc1cc2c(cc1OC)C1=NOC(CN3CCN(CC=Cc4cccc(C)c4)CC3)C1CO2 (stereo not drawn) [Compound 110]
69.2

Note IC50 for the molecule shown: Oc1ccc2c(c1)OCC1C2=NOC1CN1CCN(Cc2ccc3ccccc3c2)CC1 (stereo not drawn) [Compound 268]
1

Dear colleague, please send me the reported IC50 for COc1cc2c(cc1OC)C1=NOC(CN3CCN(CC(C)Nc4ccccc4)CC3)C1CO2 (stereo not drawn) [Compound 26] when you can.
525

Give IC50 for the following molecule: COc1cc2c(cc1OC)C1=NOC(CN3CCN(C/C=C/c4ccsc4)CC3)C1CO2 (single isomer, unassigned) [Compound 314]
11.2

Give recorded IC50. COc1cc2c(cc1OC)C1=NOC(CN3CCN(Cc4ccoc4)CC3)C1CO2 (stereo not drawn) [Compound 296]
759

For the molecule COc1cc2c(cc1OC)C1=NOC(CN3CCN(Cc4ccccc4)CC3)C1CO2 (stereo not drawn) [Compound 31] , report IC50.
794

Give the reported IC50 for this molecule. COc1cc2c(cc1OC)C1=NOC(CN3CCN(C/C=C(\C)c4ccccc4F)CC3)C1CO2 (single isomer, unassigned) [Compound 359]
7.94

Provide measured IC50 value, entry: COc1cc2c(cc1OC(C)=O)OCC1C2=NOC1CN1CCN(C/C=C(\C)c2ccccc2)CC1 (single isomer, unassigned) [Compound 358]
1.48

Input COc1cc2c(cc1OC)C1=NOC(CN3CCN(CC4=Cc5ccccc5OC4)CC3)C1CO2 (stereo not drawn) [Compound 65] , output reported IC50.
13.2

Supply IC50 value. Item: COc1cc2c(cc1OC)C1=NOC(CN3CCN(C/C=C(\C)c4ccsc4)CC3)C1CO2 (single isomer, unassigned) [Compound 323]
6.17

Provide measured IC50 value, entry: COc1cc2c(cc1OCC1CC1)OCC1C2=NOC1CN1CCN(C/C(C)=C/c2ccc(F)cc2)CC1 (single isomer, unassigned) [Compound 337]
20.9

Please list IC50 recorded for the molecule c1ccc2cc(CN3CCN(CC4ON=C5c6ccc(OC7CCOC7)cc6OCC54)CC3)ccc2c1 (stereo not drawn) [Compound 271]
3.89

Recall and state the measured IC50 for COc1cc2c(cc1OC)C1=NOC(CN3CCN(CC=Cc4ccc(F)cc4)CC3)C1CO2 (stereo not drawn) [Compound 43] .
102

Please give measured IC50 of the following entry: COc1cc2c(cc1OC)C1=NOC(CN3CCN(Cc4ccc5cc(F)ccc5c4)CC3)C1CO2 (stereo not drawn) [Compound 76]
72.4
